Hello, the source for this data is patent US12410253B2, in case you need it.

- Target Or Test System: T1, Human NRP2 (aa23-855) (Homo sapiens, UniProt O60462)
- T1 construct: Human NRP2 (aa23-855)
- T1 sequence (O60462 23-855 isoform O60462-3): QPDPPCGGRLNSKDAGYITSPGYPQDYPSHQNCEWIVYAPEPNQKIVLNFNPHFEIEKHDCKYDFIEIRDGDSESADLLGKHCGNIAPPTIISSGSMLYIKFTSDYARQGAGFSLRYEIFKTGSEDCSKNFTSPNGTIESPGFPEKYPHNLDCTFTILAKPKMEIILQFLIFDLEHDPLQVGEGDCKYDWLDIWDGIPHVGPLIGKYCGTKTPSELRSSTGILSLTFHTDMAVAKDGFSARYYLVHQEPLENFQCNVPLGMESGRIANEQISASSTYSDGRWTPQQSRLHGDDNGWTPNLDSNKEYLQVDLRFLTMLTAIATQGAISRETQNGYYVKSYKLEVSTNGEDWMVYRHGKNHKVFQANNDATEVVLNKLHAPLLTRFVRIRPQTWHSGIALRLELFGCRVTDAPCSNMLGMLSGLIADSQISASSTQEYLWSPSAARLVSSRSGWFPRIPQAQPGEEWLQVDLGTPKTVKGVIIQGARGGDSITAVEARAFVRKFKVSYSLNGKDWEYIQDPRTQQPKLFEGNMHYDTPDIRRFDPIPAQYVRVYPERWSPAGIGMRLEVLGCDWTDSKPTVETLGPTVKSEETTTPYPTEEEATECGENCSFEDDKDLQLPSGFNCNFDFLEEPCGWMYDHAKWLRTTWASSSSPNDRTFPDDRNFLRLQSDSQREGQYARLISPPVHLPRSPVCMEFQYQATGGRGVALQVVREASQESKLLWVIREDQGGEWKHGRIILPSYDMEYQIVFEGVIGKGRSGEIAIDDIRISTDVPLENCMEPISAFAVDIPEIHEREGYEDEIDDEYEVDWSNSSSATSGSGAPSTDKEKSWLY
- Measurement Notes: SPR binding affinity of anti-NRP2 antibodies to human NRP2 antigen
- Condition Description: KD = kd/ka, Langmuir (1:1) model
The molecules listed here are annotated with their Kd.
State the answer as a number, implicitly in nM.

Molecule	Kd, nM
aNRP2-28v2/4: mouse surrogate VEGF blocking antibody recognizing mouse NRP2, functional surrogate for aNRP2-10v10; CDRs SEQ ID NOs: 63-68 (antibody, V domains shown) VH: QSVKESEGGLFKPTDTLTLTCTVSGFSLSTYSISWVRQAPGNGLEWIGIIGDAGGIIYATWAKSRSTITRSTALNTVTLKMTGLTAADTATYFCARDGTAFDIWGPGTLVTVSS VL: AYDMTQTPASVEVVVGGTVTIKCQASQSIYSKLGWYQQKPGQPPKLLIYRASTLASGVSSRFKGSGSGTEYTLTISGVQCDDAATYYCQQDYSYINVDNIFGGGTEVVVK	0.0599
aNRP2-2v4: humanized, affinity matured anti-NRP2 antibody, target domain c; VH SEQ ID NO: 45, VL SEQ ID NO: 46 (antibody, V domains shown, Variable heavy chain region; Light chain variable region) VH: QVQLVQSGAEVKKPGASVKVSCKASGYTFTSYWMHWVRQAPGQGLEWMGVIHPNSASTFYNERFKTRATMTVDRSSSTAYMELSSLRSEDTAVYYCSRPGTVRRSDYWGQGTTVTVSS VL: DVVMTQSPLSLPVTLGQPASISCRSSQNIVHSTGNTYLEWYQQRPGQSPRLLIYKVSNRFSGVPDRFSGSGSGTDFTLKISRVEAEDVGVYYCFQGSHVPWTFGGGTKVEIK	2.7

# input for lookup
What the record says about aNRP2-11v7: humanized, affinity matured anti-NRP2 antibody, target domain b2; VH SEQ ID NO: 51, VL SEQ ID NO: 52 (antibody, V domains shown, Variable heavy chain region; Light chain variable region) VH: QVQLVQSGAEVKKPGASVKVSCKASGYTFTSFGISWVRQAPGQGLEWIGEIYPRSGNTYYNENFKGRATMTADKSTSTAYMELRSLRSDDTAVYYCARSSGYYGSTPFPYWGQGTLVTVSS VL: DIQMTQSPSSLSASVGDRVTITCRASQDISNYLNWYQQKPGKAVKLLIYYTSRLHSGVPSRFSGSGSGTDYTFTISSLQPEDIATYYCQQGNTLPWTFGGGTKVEIK : Kd is 0.95
